Target: KRasG12C (Homo sapiens, UniProt P01116, G12C)
Construct: biotin (biotinylated); made in house
Sequence (P01116 1-188 isoform P01116-2 G12C): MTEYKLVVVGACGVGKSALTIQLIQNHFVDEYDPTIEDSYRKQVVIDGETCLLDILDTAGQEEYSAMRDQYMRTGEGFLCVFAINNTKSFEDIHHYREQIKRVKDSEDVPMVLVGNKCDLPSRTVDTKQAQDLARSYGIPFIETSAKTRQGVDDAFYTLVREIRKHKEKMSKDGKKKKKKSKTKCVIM
Test: KRasG12C mass spectrometry adducting assay
Type: binding
Settings: 10 μM test compound, 4 μM GDP loaded KRasG12C, 4 hours
Answer each item with its documented KRasG12C M. S. Binding Mean adduct %.
Answers are plain numbers, in %.

Solved cases (5 shown):
C=CC(=O)N1C[C@H]2COc3c(Cl)c(-c4c(O)cccc4F)c(F)c4ncnc(c34)N2C[C@H]1C (single isomer, unassigned) [Example 4] ... 96
C=CC(=O)N1CCN2c3ncnc4c(F)c(-c5c(F)ccc6c5ncn6C)c(Cl)c(c34)OC[C@@H]2C1 (single isomer, unassigned) ... 99
C=CC(=O)N1C[C@@H]2CCOc3c(Cl)c(-c4c(O)cccc4F)c(F)c4ncnc(c34)N2C[C@@H]1C (single isomer, unassigned) ... 95.528
C=CC(=O)N1CCN2c3ncnc4c(F)c(-c5c(F)ccc6[nH]ncc56)c(Cl)c(c34)OC[C@@H]2C1 (single isomer, unassigned) ... 95
C=CC(=O)N1CCN2c3ncnc4c(F)c(-c5c(C)ccc6c5C(=O)NC6)c(Cl)c(c34)OC[C@@H]2C1 (single isomer, unassigned) [Example 1] ... 98

Now look at this entry.
-- ask What measured KRasG12C M. S. Binding Mean adduct % goes with C=CC(=O)N1CCN2c3ncnc4c(F)c(-c5c(C)ccc6[nH]nnc56)c(Cl)c(c34)OC[C@@H]2C1 (single isomer, unassigned) [Example 18] ?
-- reply 25
